Data credit: ChEMBL document CHEMBL4118192

# target.desc: Bromodomain-containing protein 4 (Homo sapiens)
# test.summary: Inhibition of recombinant His6-tagged human BRD4 bromodomain 1 expressed in Escherichia coli BL21(DE3)-R3-pRARE2 cells preincubated for 30 mins followed by H4KAc4 peptide substrate addition measured after 30 mins by AlphaScreen assay
# conditions.used: read-out: pIC50 (converted)
Please assign a class to every record based on measured IC50, with ranges group 1 (below 400 nM), group 2 (400 nM to below 900 nM), group 3 (900 nM or more)

Completed entries (count: 10):
Q) # classify by IC50 band: Cc1noc(C)c1-c1cc(O)cc(C(O)c2ccc(Cl)cn2)c1 (stereo unspecified)
A) group 2

Q) Which bin should I file Cc1noc(C)c1-c1cc(O)cc(C(O)c2ccc(F)cc2)c1 (stereo unspecified) under?
A) group 2

Q) Which bin should I file COc1cccc(C(O)c2cc(O)cc(-c3c(C)noc3C)c2)c1 (stereo unspecified) under?
A) group 2

Q) Class for Cc1noc(C)c1-c1cc(O)cc(C(O)c2ccc(Cl)c(Cl)c2)c1 (stereo unspecified) ?
A) group 3

Q) // return the class label for Cc1noc(C)c1-c1cc(O)cc(C(O)c2cccnc2)c1 (stereo unspecified)
A) group 1

Q) Into which category would you place Cc1noc(C)c1-c1cc(O)cc(Cc2ccccc2)c1 ?
A) group 3

Q) Kindly state the category for this molecule: Cc1noc(C)c1-c1cc(O)cc(C(O)C2CC2)c1 (stereo unspecified)
A) group 1

Q) Exercise: read the entry Cc1noc(C)c1-c1cc(O)cc(C(O)c2ccccn2)c1 (stereo unspecified) and state which class it falls under.
A) group 3

Q) Classify this molecule: Cc1noc(C)c1-c1cc(O)cc(C(O)c2ccc(Cl)cc2)c1 (stereo unspecified)
A) group 2

Q) In plain terms, what class is Cc1ccc(C(O)c2cc(O)cc(-c3c(C)noc3C)c2)cc1 (stereo unspecified) ?
A) group 1

Continuing:
Q) Record Cc1noc(C)c1-c1cc(O)cc(C(O)c2ccncc2)c1 (stereo unspecified) — which class?
A) group 1

Q) Which of the defined bands does the recorded IC50 of Cc1noc(C)c1-c1cc(O)cc(C(=O)N2CCNCC2)c1 sit within?
A) group 2
